Exercise: state measured GI50 for each of the molecules provided.
System: SK-OV-3
test-summary: NCI tumour cell line growth inhibition, 48 h
The source made the active and inactive calls. No stated cut-off is given here; in the data, active = GI50 up to about 1.1 µM and inactive = higher.

# GI50 (molecule: Nc1ncc2ncn(C3CCC(CO)O3)c2n1 (stereo not given) ) is > 100 µM (inactive)

For record Clc1nc(Cl)nc(NC23CC4CC(CC(C4)C2)C3)n1 the listed GI50 is 32.3 µM (inactive)

GI50 recorded for this molecule, Cc1ccc2nc(-c3ccc(NC(=O)c4ccc(N)cc4)c(S(=O)(=O)O)c3)sc2c1 , is > 100 µM (inactive)

Kindly note the recorded GI50 for Cc1ccnc2[nH]c3ccccc3c(=O)c12 , which is 43.5 µM (inactive)

GI50 for O=C(CC1(O)C(=O)Nc2ccccc21)c1ccncc1 (stereo not given) is > 100 µM (inactive)

// GI50 value for CC1(C)C(=O)C2(OS(=O)(=O)C(F)(F)F)CCC1C2 (stereo not given) : > 100 µM (inactive)

Lab book: GI50 of Cn1nc2ccc3nccc(N4CCN(CCO)CC4)c3c2n1 noted as > 100 µM (inactive)

Kindly note the recorded GI50 for [N-]=[N+]=C(C(=O)OCC#CCOC(=O)C(=[N+]=[N-])S(=O)(=O)c1ccccc1)S(=O)(=O)c1ccccc1 , which is > 10 µM (inactive)

Entry Cc1ccc2nc(Cl)c(/C=N/N3C(=O)/C(=C/Cc4ccco4)N=C3c3ccccc3)cc2c1 — recorded GI50 = > 100 µM (inactive)

Notebook: COc1cc2c(cc1OCCCC(=O)Nc1cc(C(=O)NCCCN(C)C)n(C)n1)N=CC1CCCN1C2=O (stereo not given) , GI50 read as > 42.2 µM (inactive)

====

Test system: OVCAR-8
test-summary: NCI tumour cell line growth inhibition, 48 h
Calls of active or inactive are those of the source. Rule as the data show it: active = GI50 up to about 1.1 µM and inactive = higher.
parameter: GI50

The compound C[n+]1c2ccccc2c(NC(CS)C(=O)O)c2ccccc21 (configuration not stated) showed GI50 equal to 19.4 µM (inactive)

Lab note: measured GI50 of C[n+]1c(-c2ccc(/C=N/N=C/c3ccc(-c4cn5ccccc5[n+]4C)cc3)cc2)cn2ccccc21 was > 100 µM (inactive)

Quick note, GI50 for N=C(N)NNC(=O)C(=O)O landed at > 100 µM (inactive)

Value of measured GI50 for the entry Clc1c2nc3ccccc3c-2[nH]c2ccccc12 : 29 µM (inactive)

GI50 reading for O=[N+]([O-])c1cc(C(F)(F)F)cc2n[se]nc12 : 1.97 µM (inactive)

Recorded result, Cc1ccc(N2CCN(CCC(=O)O)CC2)cc1 , GI50: > 100 µM (inactive)

GI50 measured on CCCCCOCC(O)CO (configuration not stated) = > 100 µM (inactive)

Note to self: GI50 recorded for Cc1ccc(/C=N/NS(=O)(=O)c2ccccc2)cc1C was > 100 µM (inactive)

Form field GI50, entry O=C(O)CNS(=O)(=O)c1ccc(NC(=O)CI)cc1 : 21.1 µM (inactive)

# GI50 of CCCC(Sc1nc(N)nc2nc[nH]c12)C(=O)O (configuration not stated) = 56.2 µM (inactive)

The reported GI50 of the compound c1ccc(CN2C3C4N(Cc5ccccc5)C2C2N(Cc5ccccc5)C(C(N2Cc2ccccc2)N4Cc2ccccc2)N3Cc2ccccc2)cc1 was > 100 µM (inactive)

get_value(item= Nc1ccccc1.O=C(O)C(C(F)(F)F)C(F)(F)F , readout=GI50) returns > 100 µM (inactive)
